molecular target: GRIP2_7, Q9C0E4; assay: holdup assay; design: key: below the threshold = too weak to quantify, mostly under pKd 3.1 to 4; conditions: plain residues with an end cap or a label only (N-terminal biotin on a linker: ado-ado)
Sequence (Q9C0E4 934-1023): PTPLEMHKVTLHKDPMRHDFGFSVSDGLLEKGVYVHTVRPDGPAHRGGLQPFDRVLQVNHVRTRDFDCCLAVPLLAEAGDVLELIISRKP
property.measured: pKd

Sample answers from the record:
[
  {
    "binder": "SLNANEVEWF [RNF130, Q86XS8]",
    "val": 3.94
  },
  {
    "binder": "PSHPRLQTHV [KIRREL2, Q6UWL6]",
    "val": "below the threshold"
  },
  {
    "binder": "IDESKKEWLI [CNTNAP2, Q9UHC6]",
    "val": 4.45
  },
  {
    "binder": "REEPDHSTEV [CCRL2, O00421]",
    "val": "below the threshold"
  },
  {
    "binder": "QRPYRRGSEI [KCNJ18, B7U540]",
    "val": "below the threshold"
  },
  {
    "binder": "KRPEMTSSSV [MUC3A, MUC3B, Q02505;Q9H195]",
    "val": "below the threshold"
  }
]

Prompt: # get_value(readout='pKd', item= PYSESDDDWC [CACNA1A, O00555] )
Completion: below the threshold

Prompt: # get_value(readout='pKd', item= QSYPSKHDYV [CLDN18, P56856] )
Completion: below the threshold

Prompt: # get_value(readout='pKd', item= DTKNYKQTSV [CRIPT, Q9P021] )
Completion: below the threshold

Prompt: # get_value(readout='pKd', item= DGVNEKVSCV [HTR2A, P28223] )
Completion: below the threshold

Prompt: # get_value(readout='pKd', item= MHIQEKGFHV [EPHA6, Q9UF33] )
Completion: 3.93
